inhibition values for the compounds below.
Measurement Notes: viability loss in Ba/F3 EpoR-JAK2V617F cells – cell-based, luminescence, JAK2V617F inhibitor project, primary screen (AID 1446);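 further: cytokine-independent growth of Ba/F3 cells driven by EpoR plus mutant JAK2; 0% = DMSO-treated cells and 100% = JAK inhibitor I control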
Run Conditions: ATP luminescence, at 5.6 µM, stronger effect = higher value
In all, about 220,000 compounds went through this assay and about 2,400 (1.1%) were called active. This excerpt belongs to a sample that is enriched for actives.
Test Readout: inhibition (%)

| Compound | Test Readout | Quantitative Result |
| --- | --- | --- |
| CCN(CC)CCOC(=O)c1ccc(NC(=O)CNC(=O)c2ccccc2)cc1 | inhibition | 0.68 |
| CC(=O)c1nnn(-c2ccc(Cl)cc2C#N)c1C | inhibition | 0.95 |
| O=C1CC(c2c(F)cccc2Cl)C(n2cncn2)C(O)=C1C1NCCc2ccccc21 (stereo not given) | inhibition | -3.23 |
| Cc1ccc(S(=O)(=O)N(C)C)cc1NC(=O)c1ccccc1Br | inhibition | 2.86 |
| CCN(C(=O)COC(=O)c1cc(NS(=O)(=O)c2ccc(Cl)c([N+](=O)[O-])c2)ccc1O)C1CCCCC1 | inhibition | -2.87 |
| Cc1ccc(C(=O)NN(CCC#N)C2=NS(=O)(=O)c3ccccc32)cc1 | inhibition | -4.16 |
| Cc1cc2ccccn2c1C(=O)c1cccc(S(=O)(=O)N2CCOCC2)c1 | inhibition | -0.04 |
| Cc1cc(C)c(NC(=S)N2CCCC2C(=O)O)c(C)c1 (stereo not given) | inhibition | -0.43 |
| COc1ccc([N+](=O)[O-])cc1NC(=O)COC(=O)/C=C/c1ccco1 | inhibition | -0.59 |
| COc1ccc(/C=N/OCC(=O)N(Cc2ccccc2)c2ccccc2C(=O)O)cc1 | inhibition | -2.1 |

====

Measurement Notes: viability loss in Ba/F3 EpoR-JAK2V617F cells – cell-based, luminescence, JAK2V617F inhibitor project, primary screen (AID 1446);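 further: cytokine-independent growth of Ba/F3 cells driven by EpoR plus mutant JAK2; 0% = DMSO-treated cells and 100% = JAK inhibitor I control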
Run Conditions: ATP luminescence, at 5.6 µM, stronger effect = higher value
Out of some 220,000 compounds screened, about 2,400 (1.1%) were called active. Shown is part of a subset that was picked to be rich in actives.
inhibition values for the molecules below.

| Molecule | Unit | inhibition |
| --- | --- | --- |
| CCOC(=O)c1ccc(NC(=O)Cn2nnc(-c3ccc(C)cc3)n2)cc1 | % | -1.34 |
| CC(=O)c1ccc(N2CCN(S(=O)(=O)c3c(C)[nH]c(=O)[nH]c3=O)CC2)cc1 | % | 2 |
| CC1CCCCN1S(=O)(=O)c1ccc(S(=O)(=O)N(CC(=O)Nc2ccccc2)Cc2cccs2)cc1 (stereo not given) | % | -2.37 |
| CC(=O)NC(Cc1ccc(F)c(F)c1)C(=O)NC1CCN(c2nnnn2-c2ccccc2)CC1 (stereo not given) | % | 1.68 |
| Clc1ccc(C[n+]2cc(-c3ccccc3)n3c2CCC3)cc1 | % | 70.5 |
| Clc1ccc(C[n+]2cc(-c3ccc(Cl)cc3)n3c2CCC3)cc1 | % | 50.1 |
| Nc1nc(SC23CC4CC(CC(C4)C2)C3)ns1 | % | -4.14 |
| Nc1cccc(CCc2nc3ccccc3[nH]2)c1 | % | -1.26 |
| O=C(C[n+]1cc(-c2ccc(Cl)c(Cl)c2)n2c1CCC2)c1cccs1 | % | 4.8 |
| CC1CCCN(S(=O)(=O)c2ccc(C(=O)Nc3nnc(-c4ccncc4)o3)cc2)C1 (stereo not given) | % | -1.33 |

These measurements were taken from PubChem BioAssay AID1446.
